- System: Enterovirus A71
- protocol: Antiviral activity against human enterovirus 71 87-2008
- Type: functional, organism-based
- studyConditions: Enterovirus A
measuredAttribute: EC50

>>> print(df.to_string())
                             compoundsmiles              tgt  experimentalvalue
0  CCC(CC)COC(=O)[C@H](C)N[P@](=O)(OC[C@H]1O[C@@](C#N)(c2ccc3c(N)ncnn23)[C@H](O)[C@@H]1O)Oc1ccccc1  Enterovirus A71             991 nM

* * *

- protocol: Selectivity index, ratio of CC50 for human RD cells to EC50 for antiviral activity against human Enterovirus 71
- Format: toxicity
- studyConditions: read-out: Ratio CC50/EC50
Documented selectivity ratio across a set of molecules

molecule	selectivity ratio
CC(Nc1ncnc2c1ncn2[C@@H]1O[C@H](CO)[C@@H](O)[C@H]1O)c1cccc(Cl)c1 (stereo partly drawn)	> 93.5
C[C@H](NP(=O)(OC[C@H]1O[C@@H](n2cnc3c(NCc4cccc(C(F)(F)F)c4)ncnc32)[C@H](O)[C@@H]1O)Oc1ccccc1)C(=O)OCc1ccccc1 (stereo partly drawn)	542
CCOC(=O)/C=C/[C@H](C[C@@H]1CCNC1=O)NC(=O)[C@@H](CC(=O)[C@@H](NC(=O)c1cc(C)on1)C(C)C)Cc1ccc(F)cc1	> 111
CSC[C@H]1O[C@@H](n2cnc3c(NCc4ccc(Cl)cc4)ncnc32)[C@H](O)[C@@H]1O	> 12.1
CSC[C@H]1O[C@@H](n2cnc3c(NC(C)c4cccc(Cl)c4)ncnc32)[C@H](O)[C@@H]1O (stereo partly drawn)	10.5
C[C@H](NP(=O)(OC[C@H]1O[C@@H](n2ccc3c(NCc4cccc(C(F)(F)F)c4)ncnc32)[C@H](O)[C@@H]1O)Oc1ccccc1)C(=O)OCc1ccccc1 (stereo partly drawn)	70.8
OC[C@H]1O[C@@H](n2cnc3c(NCc4cccc(S(F)(F)(F)(F)F)c4)ncnc32)[C@H](O)[C@@H]1O	> 1280
CSC[C@H]1O[C@@H](n2cnc3c(NCc4cccc(Cl)c4)ncnc32)[C@H](O)[C@@H]1O	> 37.7
